Source of measurements: patent US20190119282A1

Experiment: In vivo rat pharmacokinetics (intravenous and oral)
Details: plasma, intravenous 0.5 to 1 mg/kg, read-out: Clp
Assign a class from recorded clearance; defined classes: bottom range: < 4 mL/min/kg; center range: ≥ 4 mL/min/kg and < 6 mL/min/kg; top range: ≥ 6 mL/min/kg

Category of CC(C)(C)c1cc(-c2ccc(F)cc2)nn2cc(C(=O)N3CCN(C(=O)C4CC(O)(C(F)(F)F)C4)CC3(C)C)nc12 (stereo not shown) , please.
bottom range

Category of `Cc1nnc(C(=O)N2CCN(C(=O)c3cn4nc(C5CCC(F)(F)CC5)cc(C(C)(C)C)c4n3)C(C)(C)C2)[nH]1` , please.
top range

Category of `Cc1cc(-c2cc(C(C)C)c3nc(C(=O)N4CCNC(=O)C4(C)C)cn3n2)ccc1F` , please.
center range

Category of `Cc1cc(C(=O)N2CCN(C(=O)c3cn4nc(-c5ccc(F)cc5)cc(C(C)C)c4n3)C(C)(C)C2)[nH]n1` , please.
top range

Category of `CC(C)c1cc(-c2ccc(C(F)(F)F)c(F)c2)nn2cc(C(=O)N3CCN(C(=O)C(C)(C)O)CC3(C)C)nc12` , please.
center range

Category of `CC(C)(C)c1cc(-c2ccc(C(F)(F)F)cc2)nn2cc(C(=O)N3CCNC(=O)C3(C)C)nc12` , please.
bottom range

Category of `CC(C)(C)c1cc(-c2ccc(F)cc2)nn2cc(C(=O)N3CCNC(=O)C3(C)C)nc12` , please.
bottom range

Category of `CC1(C)C(=O)NCCN1C(=O)c1cn2nc(-c3ccc(F)cc3)cc(C3CCOCC3)c2n1` , please.
bottom range

Category of `Cc1nc(C(=O)N2CCN(C(=O)c3cn4nc(-c5ccc(F)cc5)cc(C(C)(C)C)c4n3)C(C)(C)C2)n[nH]1` , please.
bottom range

Category of `Cc1cc(-c2ccc(F)cc2)nn2cc(C(=O)N3CCN(C(=O)[C@H](O)CC(C)(C)C)[C@@H](C)C3)nc12` , please.
top range

Category of `CC(C)(C)c1cc(C2CCC(F)(F)CC2)nn2cc(C(=O)N3CCN(C(=O)[C@H]4C[C@@](C)(O)C4)CC3(C)C)nc12` , please.
top range

Category of `CC(C)(C)c1cc(-c2ccc(F)cc2)nn2cc(C(=O)N3CCN(C(=O)[C@H]4CC[C@@](C)(C(=O)O)CC4)CC3(C)C)nc12` , please.
top range
